Tested on: ACVR1;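 further: KINOMEscan scanMAX binding as percent activity remaining versus control; lower means stronger binding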
Conditions: Compound Concentration (nM):1000

| compound | Percent Control |
| --- | --- |
| CCc1ccc(Oc2nccc(-c3c(-c4ccc(F)cc4)ncn3C3CCNCC3)n2)cc1 | 78% |
| Cl.O=C(Nc1ccc(Oc2ccc3[nH]c(NC(=O)c4ccco4)nc3c2)cc1)Nc1cc(C(F)(F)F)ccc1F [GW683134A] | 100% |
| C[C@@H](Oc1cc(-n2cnc3ccc(OC4CCN(C)CC4)cc32)sc1C(N)=O)c1ccccc1Cl [GSK579289A] | 85% |
| NS(=O)(=O)c1ccc(N/N=C2\C(=O)Nc3ccc(C(=O)NCc4ccncc4)cc32)cc1 [GW300657X] | 100% |
